Values were extracted from patent US4880007A.

- measurement-protocol: ^153 Gd biodistribution, IV study in rats
- Format: in vivo, male rats
- condition-label: rat, IV, two hours post injection
endpoint-name: Ratio Bone/Liver & Spleen
Field format: numeric only.

{"smiles-code": "O=P(O)(O)CN(CCN(CP(=O)(O)O)CP(=O)(O)O)CP(=O)(O)O.[Gd]", "Ratio Bone/Liver & Spleen": 35.2}
{"smiles-code": "[153Gd+3].[Cl-].[Cl-].[Cl-]", "Ratio Bone/Liver & Spleen": 1.1}
{"smiles-code": "O=P(O)(O)CP(=O)(O)O.[Gd]", "Ratio Bone/Liver & Spleen": 0.0}

**Query** Specify reported Ratio Bone/Liver & Spleen for the compound shown: CC(O)(P(=O)(O)O)P(=O)(O)O.[Gd]
**Result** 2.04

---

- measurement-protocol: ^153 Gd biodistribution, IV study in rats
- Type: in vivo, male rats
- condition-label: rat, IV, two hours post injection
endpoint-name: Blood (% activity per organ)
State the answer as a number, implicitly in % activity per organ.

Below: 3 compounds and their reported Blood.
{"smiles-code": "CC(O)(P(=O)(O)O)P(=O)(O)O.[Gd]", "quantitative-readout": 21.45}
{"smiles-code": "[153Gd+3].[Cl-].[Cl-].[Cl-]", "quantitative-readout": 3.7}
{"smiles-code": "O=P(O)(O)CP(=O)(O)O.[Gd]", "quantitative-readout": 0.1}

// next item, Blood requested
**Query** Determine its reported Blood: O=P(O)(O)CN(CCN(CP(=O)(O)O)CP(=O)(O)O)CP(=O)(O)O.[Gd]
**Result** 0.6

---

Quick reference for Muscle among some compounds
- measurement-protocol: ^153 Gd biodistribution, IV study in rats
- Format: in vivo, male rats
- condition-label: rat, IV, two hours post injection

{"smiles-code": "CC(O)(P(=O)(O)O)P(=O)(O)O.[Gd]", "Muscle": "13.8 % activity per organ"}

**Query** For the compound [153Gd+3].[Cl-].[Cl-].[Cl-] , give its reported Muscle.
**Result** 4.0 % activity per organ

**Query** Recall and state the measured Muscle for O=P(O)(O)CN(CCN(CP(=O)(O)O)CP(=O)(O)O)CP(=O)(O)O.[Gd] .
**Result** 1.1 % activity per organ

**Query** Find the measured Muscle of O=P(O)(O)CP(=O)(O)O.[Gd] and report it.
**Result** 0.3 % activity per organ

---

- measurement-protocol: Binding of ligands to hydroxy apatite, ^31 P NMR study
- condition-label: ligand 0.1M, 0.41 ml, pH 7.5±0.1; HAP 250 mg/ml; ^31 P NMR
endpoint-name: % Bound to HAP (%)
The reply should contain only the number, in %.

Consider the worked cases shown below.
{"compound": "O=P(O)(O)CN(Cc1cccc(CN(CP(=O)(O)O)CP(=O)(O)O)c1)CP(=O)(O)O [MXDTMP]", "unit-label": "%", "% Bound to HAP": 84.1}
{"compound": "O=C(O)CCCN(CP(=O)(O)O)CP(=O)(O)O [GABADMP]", "unit-label": "%", "% Bound to HAP": 77.8}
{"compound": "O=P(O)(O)CN(CCO)CP(=O)(O)O [AEDMP, Amino ethanol dimethylene phosphonate]", "unit-label": "%", "% Bound to HAP": 50.9}

**Query** Return the recorded % Bound to HAP value; entry: O=P(O)(O)CN(Cc1ccc(CN(CP(=O)(O)O)CP(=O)(O)O)cc1)CP(=O)(O)O [PXDTMP]
**Result** 88.0

---

- measurement-protocol: ^153 Gd biodistribution, IV study in rats
- Assay type: in vivo, male rats
- condition-label: rat, IV, two hours post injection
Listing of recorded Carcass by entry.

See these solved cases before continuing.
{"smiles-code": "O=P(O)(O)CP(=O)(O)O.[Gd]", "endpoint-name": "Carcass", "result": "0.7 % activity per organ"}
{"smiles-code": "[153Gd+3].[Cl-].[Cl-].[Cl-]", "endpoint-name": "Carcass", "result": "1.8 % activity per organ"}
{"smiles-code": "O=P(O)(O)CN(CCN(CP(=O)(O)O)CP(=O)(O)O)CP(=O)(O)O.[Gd]", "endpoint-name": "Carcass", "result": "3.5 % activity per organ"}

Let us examine a further case.
**Query** Report Carcass, nothing else, for this compound: CC(O)(P(=O)(O)O)P(=O)(O)O.[Gd]
**Result** 0.01 % activity per organ

---

- measurement-protocol: ^153 Gd biodistribution, IV study in rats
- Type: in vivo, male rats
- condition-label: rat, IV, two hours post injection
# Bone per record follows
// note: answer is a bare numeric in % activity per organ

{"compound": "CC(O)(P(=O)(O)O)P(=O)(O)O.[Gd] [Gd.EHDP]", "unit-label": "% activity per organ", "Bone": 22.64}
{"compound": "[153Gd+3].[Cl-].[Cl-].[Cl-] [^153 Gd.Cl3]", "unit-label": "% activity per organ", "Bone": 38.6}
{"compound": "O=P(O)(O)CN(CCN(CP(=O)(O)O)CP(=O)(O)O)CP(=O)(O)O.[Gd] [Gd.EDTMP]", "unit-label": "% activity per organ", "Bone": 45.2}

**Query** State, in one line, measured Bone of O=P(O)(O)CP(=O)(O)O.[Gd] [Gd.MDP]
**Result** 3.1

---

- measurement-protocol: ^153 Gd biodistribution, IV study in rats
- Type: in vivo, male rats
- condition-label: rat, IV, two hours post injection
The molecules listed here are annotated with their Stomach & Gut.
Express your answer in % activity per organ, writing the number without its unit.

Below, 3 molecules whose answers are already recorded.
{"molecule": "O=P(O)(O)CN(CCN(CP(=O)(O)O)CP(=O)(O)O)CP(=O)(O)O.[Gd] [Gd.EDTMP]", "endpoint-name": "Stomach & Gut", "quantitative-readout": 1.9}
{"molecule": "[153Gd+3].[Cl-].[Cl-].[Cl-] [^153 Gd.Cl3]", "endpoint-name": "Stomach & Gut", "quantitative-readout": 3.9}
{"molecule": "O=P(O)(O)CP(=O)(O)O.[Gd] [Gd.MDP]", "endpoint-name": "Stomach & Gut", "quantitative-readout": 0.0}

Next molecule, please.
**Query** Supply recorded Stomach & Gut for CC(O)(P(=O)(O)O)P(=O)(O)O.[Gd] [Gd.EHDP] here.
**Result** 4.21

---

- measurement-protocol: ^153 Gd biodistribution, IV study in rats
- Type: in vivo, male rats
- condition-label: rat, IV, two hours post injection
Property: Kidneys; scope: individual compounds
Your answer should be a plain number; it is taken to be in % activity per organ.

Sample records with Kidneys:
{"smiles-code": "O=P(O)(O)CP(=O)(O)O.[Gd]", "Kidneys [% activity per organ]": 0.3}
{"smiles-code": "O=P(O)(O)CN(CCN(CP(=O)(O)O)CP(=O)(O)O)CP(=O)(O)O.[Gd]", "Kidneys [% activity per organ]": 0.4}
{"smiles-code": "CC(O)(P(=O)(O)O)P(=O)(O)O.[Gd]", "Kidneys [% activity per organ]": 1.05}

Consider the additional compound presented here.
**Query** Give reported Kidneys value for [153Gd+3].[Cl-].[Cl-].[Cl-]
**Result** 2.5

---

- measurement-protocol: ^153 Gd biodistribution, IV study in rats
- Type: in vivo, male rats
- condition-label: rat, IV, two hours post injection
endpoint-name: Lung (% activity per organ)
Form entry: value (% activity per organ) — number only.

Examples from the recorded data:
{"smiles-code": "CC(O)(P(=O)(O)O)P(=O)(O)O.[Gd]", "unit-label": "% activity per organ", "Lung": 1.55}
{"smiles-code": "O=P(O)(O)CN(CCN(CP(=O)(O)O)CP(=O)(O)O)CP(=O)(O)O.[Gd]", "unit-label": "% activity per organ", "Lung": 0.1}
{"smiles-code": "[153Gd+3].[Cl-].[Cl-].[Cl-]", "unit-label": "% activity per organ", "Lung": 0.6}

Now consider the entry below.
**Query** State its Lung: O=P(O)(O)CP(=O)(O)O.[Gd]
**Result** 0.4

---

- measurement-protocol: Binding of chromium complexes to hydroxy apatite, by T1 relaxation measurement
- condition-label: 0.4 ml of 50 mM metal complex; HAP 250 mg/ml
Some compounds, each annotated with its measured % Bound.
// return numeric value only (unit: %, not printed)

{"smiles-code": "O=P(O)(O)CN(Cc1cccc(CN(CP(=O)(O)O)CP(=O)(O)O)c1)CP(=O)(O)O.[Cr]", "% Bound (%)": 96}
{"smiles-code": "O=P(O)(O)CN(CCO)CP(=O)(O)O.O=P(O)(O)CN(CCO)CP(=O)(O)O.[Cr]", "% Bound (%)": 96}
{"smiles-code": "O=C(O)CCCCCN(CP(=O)(O)O)CP(=O)(O)O.O=C(O)CCCCCN(CP(=O)(O)O)CP(=O)(O)O.[Cr]", "% Bound (%)": 96}
{"smiles-code": "O=C(O)CN(CP(=O)(O)O)CP(=O)(O)O.O=C(O)CN(CP(=O)(O)O)CP(=O)(O)O.[Cr]", "% Bound (%)": 80}

**Query** Consider the compound O=C(O)CCCN(CP(=O)(O)O)CP(=O)(O)O.O=C(O)CCCN(CP(=O)(O)O)CP(=O)(O)O.[Cr] . State its measured % Bound.
**Result** 90
